assayInfo: Chemical stability assessment of peptides (relative purity loss)
Format: physicochemical
runConditions: 50 mM HCl pH 1.2 + acetonitrile (1:1); 24 hours at 37° C.
Starred links: 1 amine or outer side, 2 acyl side, 3 side chain; linkers in the order of their positions; H or OH if unused. Positions of bridges follow the written chain, without caps; N, C: chain ends. Non-standard residues stand in square brackets, D forms with d. Residues, ends and D or L forms follow the SMILES beside them. *: point of attachment. X3 = CN(CCCCC(=O)N[C@@H](CS[*:2])C(=O)[*:1])[*:3]; X1 = O=C(CCCCN[*:3])N[C@@H](CS[*:2])C(=O)[*:1]; 2Nal = N[C@@H](Cc1ccc2ccccc2c1)C(=O)O; AEF = NCCOc1ccc(C[C@H](N)C(=O)O)cc1; αMeL = CC(C)C[C@](C)(N)C(=O)O; Thp = NC1(C(=O)O)CCOCC1; Me2NCH2CH2 = CN(C)CC*
Hi there, I'd appreciate the recorded Chemical stability (relative purity loss) Buffer pH 1.2 for every entry that follows.
Answers are plain numbers, in %.

[
  {
    "compound": "CC(=O)N[C@H]1CCCCNC(=O)[C@@H]2CSSC[C@H](NC(=O)[C@H](CCC(N)=O)NC(=O)[C@H](Cc3c[nH]c4ccccc34)NC1=O)C(=O)N[C@@H](Cc1ccc(OCCN)cc1)C(=O)N[C@@H](Cc1ccc3ccccc3c1)C(=O)N[C@@](C)(CC(C)C)C(=O)N[C@H](C(=O)N[C@@H](CC(N)=O)C(=O)N[C@@H](CC(N)=O)C(N)=O)CCC(=O)N(C)CCCCC(=O)N2 [compound 14] (Ac-KWQC[AEF][2Nal][αMeL]ENN-NH2; linker 1-4-8 via X3)",
    "unit": "%",
    "readoutNumber": 25.8
  }
]

**Query** Any idea what its Chemical stability (relative purity loss) Buffer pH 1.2 is? The compound is CC(=O)N[C@H]1CCCCNC(=O)[C@@H]2CSSC[C@H](NC(=O)[C@H](CCC(N)=O)NC(=O)[C@H](Cc3c[nH]c4ccccc34)NC1=O)C(=O)N[C@@H](Cc1ccc(OCCN(C)C)cc1)C(=O)N[C@@H](Cc1ccc3ccccc3c1)C(=O)NC1(CCOCC1)C(=O)N[C@H](C(=O)N[C@@H](CC(N)=O)C(=O)NCC(N)=O)CCC(=O)NCCCCC(=O)N2 [compound 30] (Ac-KWQCY(Me2NCH2CH2)[2Nal][Thp]ENG-NH2; linker 1-4-8 via X1)
**Result** 18.7

====

System: Pancreatin
assayInfo: Protease stability in simulated intestinal fluid (Pancreatin-SIF, FaSSIF)
Type: in vitro ADME
runConditions: 120 min, 1 μM peptide, 37° C., read-out: FaSSIF 120 (min), remaining percent of peptide
Starred links: 1 amine or outer side, 2 acyl side, 3 side chain; linkers in the order of their positions; H or OH if unused. Positions of bridges follow the written chain, without caps; N, C: chain ends. Non-standard residues stand in square brackets, D forms with d. Residues, ends and D or L forms follow the SMILES beside them. *: point of attachment. X3 = CN(CCCCC(=O)N[C@@H](CS[*:2])C(=O)[*:1])[*:3]; Trp(7-Me) = Cc1cccc2c(C[C@H](N)C(=O)O)c[nH]c12; 2Nal = N[C@@H](Cc1ccc2ccccc2c1)C(=O)O; AEF = NCCOc1ccc(C[C@H](N)C(=O)O)cc1; αMeL = CC(C)C[C@](C)(N)C(=O)O; Me2NCH2CH2 = CN(C)CC*; Aib = CC(C)(N)C(=O)O; Ava = NCCCCC(=O)O
valueKind: remaining at 2 h, 1 µM

[
  {
    "molecule": "CC(=O)N[C@H]1CCCCNC(=O)[C@@H]2CSSC[C@H](NC(=O)[C@H](CCC(N)=O)NC(=O)[C@H](Cc3c[nH]c4ccccc34)NC1=O)C(=O)N[C@@H](Cc1ccc(OCCN)cc1)C(=O)N[C@@H](Cc1ccc3ccccc3c1)C(=O)N[C@@](C)(CC(C)C)C(=O)N[C@H](C(=O)N[C@@H](C)C(=O)NCC(N)=O)CCC(=O)N(C)CCCCC(=O)N2 [compound 18] (Ac-KWQC[AEF][2Nal][αMeL]EAG-NH2; linker 1-4-8 via X3)",
    "remaining at 2 h, 1 µM": "76%"
  }
]

Now let's try a different one.
**Query** Can you look up the measured remaining at 2 h, 1 µM of CC(=O)NCCCC[C@@H]1NC(=O)[C@H](Cc2c[nH]c3c(C)cccc23)NC(=O)[C@H]([C@@H](C)O)NC(=O)[C@H](CC(N)=O)NC(=O)[C@@H]2CSSC[C@H](NC1=O)C(=O)N[C@@H](Cc1ccc(OCCN(C)C)cc1)C(=O)N[C@@H](Cc1ccc3ccccc3c1)C(=O)NC(C)(C)C(=O)N[C@H](C(=O)N[C@@H](CC(N)=O)C(=O)N[C@@H](Cc1c[nH]cn1)C(N)=O)CCC(=O)NCCCCC(=O)N2 [compound 20] ([Ava]CNT[Trp(7-Me)]K(Ac)CY(Me2NCH2CH2)[2Nal][Aib]ENH-NH2; disulfide 2-7; lactam N-11) for me?
**Result** 81%

====

Test system: Pancreatin
assayInfo: Protease stability in simulated intestinal fluid (Pancreatin-SIF, FaSSIF)
Format: in vitro ADME
runConditions: 240 min, 1 μM peptide, 37° C., read-out: FaSSIF 240 (min), remaining percent of peptide
Starred links: 1 amine or outer side, 2 acyl side, 3 side chain; linkers in the order of their positions; H or OH if unused. Positions of bridges follow the written chain, without caps; N, C: chain ends. Non-standard residues stand in square brackets, D forms with d. Residues, ends and D or L forms follow the SMILES beside them. *: point of attachment. X5 = CN(C(=O)CCC(=O)[*:3])[C@@H](CS[*:2])C(=O)[*:1]; X3 = CN(CCCCC(=O)N[C@@H](CS[*:2])C(=O)[*:1])[*:3]; Trp(7-Me) = Cc1cccc2c(C[C@H](N)C(=O)O)c[nH]c12; X1 = O=C(CCCCN[*:3])N[C@@H](CS[*:2])C(=O)[*:1]; 2Nal = N[C@@H](Cc1ccc2ccccc2c1)C(=O)O; AEF = NCCOc1ccc(C[C@H](N)C(=O)O)cc1; 3Pal = N[C@@H](Cc1cccnc1)C(=O)O; Lys(Me) = CNCCCC[C@H](N)C(=O)O; αMeL = CC(C)C[C@](C)(N)C(=O)O; Thp = NC1(C(=O)O)CCOCC1; Me2NCH2CH2 = CN(C)CC*; Aib = CC(C)(N)C(=O)O; Ahx = NCCCCCC(=O)O; Ava = NCCCCC(=O)O; Sar = CNCC(=O)O
API: label(entry) gives 1 (yes) if the entry's remaining at 4 h, 1 µM is strictly smaller than 60%; on equality or larger values it gives 0 (no).

[
  {
    "compound": "Cc1cccc2c(C[C@@H]3NC(=O)[C@H]([C@@H](C)O)NC(=O)[C@H](CC(N)=O)NC(=O)[C@@H]4CSSC[C@H](NC(=O)[C@H](CCC(N)=O)NC3=O)C(=O)N[C@@H](Cc3ccc(OCCN(C)C)cc3)C(=O)N[C@@H](Cc3ccc5ccccc5c3)C(=O)NC(C)(C)C(=O)N[C@H](C(=O)N[C@@H](CC(N)=O)C(=O)N[C@@H](Cc3cccnc3)C(=O)N(C)CC(N)=O)CCC(=O)NCCCCC(=O)N4)c[nH]c12 [compound 62] ([Ava]CNT[Trp(7-Me)]QCY(Me2NCH2CH2)[2Nal][Aib]EN[3Pal][Sar]-NH2; disulfide 2-7; lactam N-11)",
    "class": "0 (no)"
  },
  {
    "compound": "CC(=O)NCCCC[C@@H]1NC(=O)[C@H](Cc2c[nH]c3c(C)cccc23)NC(=O)[C@@H](NC(C)=O)CCCCNC(=O)[C@@H]2CSSC[C@H](NC1=O)C(=O)N[C@@H](Cc1ccc(OCCN(C)C)cc1)C(=O)N[C@@H](Cc1ccc3ccccc3c1)C(=O)NC(C)(C)C(=O)N[C@H](C(=O)N[C@@H](CC(N)=O)C(=O)N[C@@H](Cc1c[nH]cn1)C(N)=O)CCC(=O)N(C)CCCCC(=O)N2 [compound 60] (Ac-K[Trp(7-Me)]K(Ac)CY(Me2NCH2CH2)[2Nal][Aib]ENH-NH2; linker 1-4-8 via X3)",
    "class": "0 (no)"
  },
  {
    "compound": "CC(=O)NCCCC[C@@H]1NC(=O)[C@H](Cc2c[nH]c3c(C)cccc23)NC(=O)[C@@H](NC(C)=O)CCCCNC(=O)[C@@H]2CSSC[C@H](NC1=O)C(=O)N[C@@H](Cc1ccc(OCCN(C)C)cc1)C(=O)N[C@@H](Cc1ccc3ccccc3c1)C(=O)NC1(CCOCC1)C(=O)N[C@H](C(=O)N[C@@H](CC(N)=O)C(=O)N[C@@H](Cc1cccnc1)C(=O)N(C)CC(N)=O)CCCCN(C)C(=O)CCC(=O)N2C [compound 74] (Ac-K[Trp(7-Me)]K(Ac)CY(Me2NCH2CH2)[2Nal][Thp][Lys(Me)]N[3Pal][Sar]-NH2; linker 1-4-8 via X5)",
    "class": "0 (no)"
  },
  {
    "compound": "CC(=O)N[C@H]1CCCCNC(=O)[C@@H]2CSSC[C@H](NC(=O)[C@H](CC(C)C)NC(=O)[C@H](Cc3c[nH]c4c(C)cccc34)NC1=O)C(=O)N[C@@H](Cc1ccc(OCCN(C)C)cc1)C(=O)N[C@@H](Cc1ccc3ccccc3c1)C(=O)N[C@@](C)(CC(C)C)C(=O)N[C@H](C(=O)N[C@@H](C)C(=O)N[C@@H](Cc1cccnc1)C(=O)N(C)CC(N)=O)CCCCN(C)C(=O)CCC(=O)N2C [compound 70] (Ac-K[Trp(7-Me)]LCY(Me2NCH2CH2)[2Nal][αMeL][Lys(Me)]A[3Pal][Sar]-NH2; linker 1-4-8 via X5)",
    "class": "0 (no)"
  },
  {
    "compound": "CC(=O)NCCCC[C@@H]1NC(=O)[C@H](Cc2c[nH]c3c(C)cccc23)NC(=O)[C@@H](NC(C)=O)CCCCNC(=O)[C@@H]2CSSC[C@H](NC1=O)C(=O)N[C@@H](Cc1ccc(OCCN(C)C)cc1)C(=O)N[C@@H](Cc1ccc3ccccc3c1)C(=O)NC1(CCOCC1)C(=O)N[C@H](C(=O)N[C@@H](CC(N)=O)C(=O)N[C@@H](Cc1cccnc1)C(=O)N(C)CC(N)=O)CCCCN(C)CCCCN2C",
    "class": "0 (no)"
  },
  {
    "compound": "COc1ccc(C[C@@H]2NC(=O)[C@@H]3CSSC[C@H](NC(=O)CCCCCNC(=O)C[C@@H](C(=O)N[C@@H](CC(N)=O)C(=O)N[C@@H](CC(N)=O)C(N)=O)NC(=O)C(C)(C)NC(=O)[C@H](Cc4ccc5ccccc5c4)NC2=O)C(=O)N[C@@H](CC(N)=O)C(=O)N[C@@H]([C@@H](C)O)C(=O)N[C@@H](Cc2c[nH]c4ccccc24)C(=O)N[C@@H](CCC(N)=O)C(=O)N3)cc1 [compound 3] ([Ahx]CNTWQCY(Me)[2Nal][Aib]DNN-NH2; disulfide 2-7; lactam N-11)",
    "class": "1 (yes)"
  },
  {
    "compound": "C[C@@H](O)[C@@H]1NC(=O)[C@H](CC(N)=O)NC(=O)[C@@H]2CSSC[C@H](NC(=O)[C@H](CCC(N)=O)NC(=O)[C@H](Cc3c[nH]c4ccccc34)NC1=O)C(=O)N[C@@H](Cc1ccc(OCCN)cc1)C(=O)N[C@H](Cc1ccc3ccccc3c1)C(=O)NC(C)(C)C(=O)N[C@H](C(=O)N[C@@H](CC(N)=O)C(=O)N[C@@H](CC(N)=O)C(N)=O)CCC(=O)NCCCCC(=O)N2",
    "class": "0 (no)"
  },
  {
    "compound": "CC(=O)N[C@H]1CCCCNC(=O)[C@@H]2CSSC[C@H](NC(=O)[C@H](CCC(N)=O)NC(=O)[C@H](Cc3c[nH]c4ccccc34)NC1=O)C(=O)N[C@@H](Cc1ccc(OCCN)cc1)C(=O)N[C@@H](Cc1ccc3ccccc3c1)C(=O)NC1(CCOCC1)C(=O)N[C@H](C(=O)N[C@@H](CC(N)=O)C(=O)NCC(N)=O)CCC(=O)N(C)CCCCC(=O)N2 [compound 16] (Ac-KWQC[AEF][2Nal][Thp]ENG-NH2; linker 1-4-8 via X3)",
    "class": "1 (yes)"
  }
]

Shift focus to the following entry.
**Query** A record lists CC(=O)N[C@H]1CCCCNC(=O)[C@@H]2CSSC[C@H](NC(=O)[C@H](CCC(N)=O)NC(=O)[C@H](Cc3c[nH]c4ccccc34)NC1=O)C(=O)N[C@@H](Cc1ccc(OCCN(C)C)cc1)C(=O)N[C@@H](Cc1ccc3ccccc3c1)C(=O)N[C@@](C)(CC(C)C)C(=O)N[C@H](C(=O)N[C@@H](CC(N)=O)C(=O)NCC(N)=O)CCC(=O)NCCCCC(=O)N2 [compound 31] (Ac-KWQCY(Me2NCH2CH2)[2Nal][αMeL]ENG-NH2; linker 1-4-8 via X1) . Is its remaining at 4 h, 1 µM below 60%?
**Result** 1 (yes)
